Data provenance is patent US10106539B2.

- targetSystem: RSV fusion (A2_F) (Human respiratory syncytial virus A, UniProt P03420)
- Sequence (P03420 26-109): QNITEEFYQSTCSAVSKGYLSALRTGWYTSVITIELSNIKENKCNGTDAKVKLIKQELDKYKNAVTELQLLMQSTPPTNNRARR
- Sequence (P03420 137-574): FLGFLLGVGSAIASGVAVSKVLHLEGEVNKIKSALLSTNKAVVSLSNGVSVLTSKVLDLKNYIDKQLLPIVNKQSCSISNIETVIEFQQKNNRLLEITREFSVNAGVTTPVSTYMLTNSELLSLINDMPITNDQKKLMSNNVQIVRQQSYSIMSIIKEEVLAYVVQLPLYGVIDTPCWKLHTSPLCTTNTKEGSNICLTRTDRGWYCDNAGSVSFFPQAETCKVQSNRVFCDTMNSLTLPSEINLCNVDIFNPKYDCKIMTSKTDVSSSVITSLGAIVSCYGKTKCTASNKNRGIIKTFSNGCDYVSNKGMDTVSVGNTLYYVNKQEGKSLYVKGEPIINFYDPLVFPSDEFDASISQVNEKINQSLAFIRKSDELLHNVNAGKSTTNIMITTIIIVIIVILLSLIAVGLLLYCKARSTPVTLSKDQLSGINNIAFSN
- protocolNotes: RSV fusion assay (luciferase reporter, transfected HEK 293T/17 cells)
measureName: pIC50
For clarity, pIC50 is expressed as the negative log10 of concentration in mol/L.

pIC50 reading for CC(C)CCn1c(CN2C(=O)C3(CC3)c3ccccc32)nc2cc(CN)ccc21 [RV039, reference compound] : 8.00

Lab note: measured pIC50 of NCc1ccc2c(c1)nc(CN1C(=O)C3(CC3)c3ccc(F)cc31)n2CCCC(F)(F)F [Example 1] was 8.96

* * *

- protocolNotes: Plasma protein binding (equilibrium dialysis), rat
- Assay type: in vitro ADME
- measurementContext: plasma (100%), pH 7.4, 5 μM, read-out: PPB fraction unbound, rat
measureName: fraction unbound at 5 μM
Give only the figure.

For NCc1ccc2c(c1)nc(CN1C(=O)C3(CC3)c3ccc(F)cc31)n2CCCC(F)(F)F the molecule record lists fraction unbound at 5 μM as 0.52

* * *

- protocolNotes: In vivo pharmacokinetics in rats (IV and PO)
- Set-up: species or system male Sprague Dawley rats
- measurementContext: rat, in vivo; male Sprague Dawley rats, 1 mg/kg (IV) and 10 mg/kg (PO); read-out: Bioavailability
measureName: bioavailability (%)
Field format: number, assumed %, no unit text.

Reported bioavailability of NCc1ccc2c(c1)nc(CN1C(=O)C3(CC3)c3ccc(F)cc31)n2CCCC(F)(F)F : 42

* * *

- protocolNotes: Liver microsomal stability, human
- Assay type: in vitro ADME
- measurementContext: both sexes, pooled liver microsomes, pH 7.4, 3 μM compound, read-out: Liver Microsomal Stability T1/2, human
For each entry below, report its half-life at 3 μM value.
Enter your answer as a number in min; do not include the unit.

For CC(C)CCn1c(CN2C(=O)C3(CC3)c3ccncc32)nc2cc(CN)ccc21 the molecule record lists half-life at 3 μM as 229

For this molecule ( NCc1ccc2c(c1)nc(CN1C(=O)C3(CC3)c3ccc(F)cc31)n2C1CCOCC1 ), measured half-life at 3 μM is 33.4

* * *

- protocolNotes: In vivo pharmacokinetics in rats (IV and PO)
- Set-up: species or system male Sprague Dawley rats
- measurementContext: rat, in vivo; male Sprague Dawley rats, 10 mg/kg (PO); read-out: Tmax PO
measureName: Tmax (h)
Give the quantity in h, number only.

Lab book: Tmax of NCc1ccc2c(c1)nc(CN1C(=O)C3(CC3)c3ccc(F)cc31)n2CCCC(F)(F)F noted as 2.7

* * *

- Tested on: human P-gp (MDR1)
- protocolNotes: MDR1-MDCK permeability
- Assay type: in vitro ADME
- measurementContext: dog, B-A, 10 μM, 60 min, read-out: Permeability (Human Pgp transfected) MDCK Papp B-A
measureName: Papp B→A at 60 min, 10 μM (×10⁻⁶ cm/s)
Write the number in ×10⁻⁶ cm/s without appending the unit.

Noted for NCc1ccc2c(c1)nc(CN1C(=O)C3(CC3)c3ccc(F)cc31)n2CCCC(F)(F)F [Example 1] : its Papp B→A at 60 min, 10 μM reads 73

* * *

- protocolNotes: In vivo pharmacokinetics in rats (IV and PO)
- Parameters: species or system male Sprague Dawley rats
- measurementContext: male, Sprague Dawley, rat, plasma; rats, 1 mg/kg (IV), Comparative Example 3; read-out: Volume of distribution (Table 6)
measureName: Vd (L/kg)
Dear colleague, please return just the value in L/kg, with no unit written.

Field Vd (entry CC(C)CCn1c(CN2C(=O)C3(CC3)c3ccccc32)nc2cc(CN)ccc21 [RV039, reference compound] ) reads 47

* * *

- protocolNotes: In vivo pharmacokinetics in rats (IV and PO)
- Design: species or system male Sprague Dawley rats
- measurementContext: male, Sprague Dawley, rat, plasma; rats, 5 mg/kg (PO), Comparative Example 3; read-out: Tmax PO (Table 6)
measureName: Tmax
I'd appreciate it if you wrote the number followed by its unit.

The recorded Tmax for entry CC(C)CCn1c(CN2C(=O)C3(CC3)c3ccccc32)nc2cc(CN)ccc21 [RV039, reference compound] equals 7.3 h

* * *

- protocolNotes: Liver microsomal stability, human
- Type: in vitro ADME
- measurementContext: both sexes, pH 7.4; human liver microsomes, 3 μM compound; read-out: Liver Microsomal Stability T1/2, human
measureName: half-life at 3 μM (min)
A number alone suffices; assume min.

Looking up NCc1ccc2c(c1)nc(CN1C(=O)C3(CC3)c3ccc(F)cc31)n2CCCC(F)(F)F , I see its half-life at 3 μM listed as 32

* * *

- Test system: RSV
- protocolNotes: RSV plaque reduction assay (Comparative Example 1, strain not stated)
- Format: cell-based
- measurementContext: human respiratory syncytial virus; read-out: RSV Plaque Reduction assay IC50 (Table 4)
measureName: pIC50
Keep it numeric: pIC50 is minus log10 of the concentration in mol/L.

Form: compound = CC(C)CCn1c(CN2C(=O)C3(CC3)c3ccccc32)nc2cc(CN)ccc21 [RV039, reference compound] ; pIC50 = 7.51

* * *

- protocolNotes: Liver microsomal stability, rat
- Assay type: in vitro ADME
- measurementContext: male, Sprague Dawley, pooled liver microsomes, pH 7.4, Comparative Example 2, read-out: Liver Microsomal Stability T1/2, rat (Table 5)
measureName: half-life at 3 μM

// half-life at 3 μM value for CC(C)CCn1c(CN2C(=O)C3(CC3)c3ccccc32)nc2cc(CN)ccc21 [RV039, reference compound] : > 1.58 h

* * *

- protocolNotes: Plasma protein binding (equilibrium dialysis), dog
- Type: in vitro ADME
- measurementContext: plasma (100%), pH 7.4, 5 μM, read-out: PPB fraction unbound, dog
- Method: Protein Binding Determination: Experimental Procedure Solutions of test compound (5 μM, 0.5% final DMSO concentration) are prepared in buffer (pH 7.4) and 100% species-specific plasma. […] The solutions for each batch of compounds are combined into two groups (protein-free and protein-containing), then cassette analysed by LC-MS/MS using two sets of calibration standards for protein-free (7 points) and protein-containing solutions (6 points).
measureName: fraction unbound at 5 μM

NCc1ccc2c(c1)nc(CN1C(=O)C3(CC3)c3ccc(F)cc31)n2CCCC(F)(F)F [Example 1] has a reported fraction unbound at 5 μM of 0.27

* * *

- protocolNotes: Plasma protein binding (equilibrium dialysis), rat
- Assay type: in vitro ADME
- measurementContext: plasma (100%), pH 7.4, Comparative Example 2, read-out: PPB fraction unbound, rat (Table 5)
measureName: fraction unbound at 5 μM

Field fraction unbound at 5 μM (entry CC(C)CCn1c(CN2C(=O)C3(CC3)c3ccccc32)nc2cc(CN)ccc21 [RV039, reference compound] ) reads 0.1

* * *

- protocolNotes: Plasma protein binding (equilibrium dialysis), dog
- Format: in vitro ADME
- measurementContext: plasma (100%), pH 7.4, Comparative Example 2, read-out: PPB fraction unbound, dog (Table 5)
measureName: fraction unbound at 5 μM
Could you keep your reply to the number by itself?

So, CC(C)CCn1c(CN2C(=O)C3(CC3)c3ccccc32)nc2cc(CN)ccc21 [RV039, reference compound] ? Its fraction unbound at 5 μM was 0.1

* * *

- protocolNotes: Liver microsomal stability, rat
- Type: in vitro ADME
- measurementContext: male, Sprague Dawley, pooled liver microsomes, pH 7.4, 3 μM compound, read-out: Liver Microsomal Stability T1/2, rat
measureName: half-life at 3 μM (h)
All answers are understood in h, so give the number only.

According to the records, this compound CC(C)CCn1c(CN2C(=O)C3(CC3)c3ccncc32)nc2cc(CN)ccc21 displays half-life at 3 μM of 2.08

* * *

- System: human P-gp (MDR1)
- protocolNotes: MDR1-MDCK permeability
- Assay type: in vitro ADME
- measurementContext: dog
measureName: Papp A→B at 60 min, 10 μM (×10⁻⁶ cm/s)
Provide only the numeric value, understood in ×10⁻⁶ cm/s.

Briefly, Papp A→B at 60 min, 10 μM measured for CC(C)CCn1c(CN2C(=O)C3(CC3)c3ccccc32)nc2cc(CN)ccc21 [RV039, reference compound] : 0.42

* * *

- protocolNotes: In vivo pharmacokinetics in rats (IV and PO)
- Design: species or system male Sprague Dawley rats
- measurementContext: rat, in vivo; male Sprague Dawley rats, 1 mg/kg (IV); read-out: Volume of distribution
measureName: Vd (L/kg)
A number alone suffices; assume L/kg.

Reported Vd of NCc1ccc2c(c1)nc(CN1C(=O)C3(CC3)c3ccc(F)cc31)n2CCCC(F)(F)F [Example 1] : 22

* * *

Consider the following compounds; for each one, report its half-life at 3 μM.
- protocolNotes: Liver microsomal stability, dog
- Assay type: in vitro ADME
- measurementContext: male, Beagle, pooled liver microsomes, pH 7.4, 3 μM compound, read-out: Liver Microsomal Stability T1/2, dog
Give a bare numeral; the unit h is implied.

Query NCc1ccc2c(c1)nc(CN1C(=O)C3(CC3)c3ccc(F)cc31)n2C1CCOCC1 [Example 7] yields half-life at 3 μM of 55.8

Short answer for CC(C)CCn1c(CN2C(=O)C3(CC3)c3ccncc32)nc2cc(CN)ccc21 [Example 6] : half-life at 3 μM was 18.3
